molecular target: Vitamin D3 receptor (Rattus norvegicus, UniProt P13053); assay: Displacement of [3H]-1alpha,25(OH)2D3 from recombinant rat VDR after overnight incubation by scintillation counting
measurementName: Ki (nM)

Examples from the recorded data:
[[record]]
testsmiles = "C=C1[C@H](O)CC(=C/C=C2\\CCC[C@]3(C)[C@@H]([C@H](C)[C@H](C)CCC(C)(C)O)CC[C@@H]23)C[C@H]1O"
unitofmeasure = "nM"
measured = 0.2

[[record]]
testsmiles = "C=C1[C@H](O)CC(=C/C=C2\\CCC[C@]3(C)[C@@H]([C@@H](C)C(C)(C)CCC(C)(C)O)CC[C@@H]23)C[C@H]1O"
unitofmeasure = "nM"
measured = 0.06

[[record]]
testsmiles = "C=C1[C@H](O)CC(=C/C=C2\\CCC[C@]3(C)[C@@H]([C@H](C)C(C)(C)CCC(C)(C)O)CC[C@@H]23)C[C@H]1O"
unitofmeasure = "nM"
measured = 0.02

[[record]]
testsmiles = "C=C1[C@H](O)CC(=C/C=C2\\CCC[C@]3(C)[C@@H]([C@@H](C)[C@H](C)CCC(C)(C)O)CC[C@@H]23)C[C@H]1O"
unitofmeasure = "nM"
measured = 0.04


(I) C=C1[C@H](O)CC(=C/C=C2\CCC[C@]3(C)[C@@H]([C@@H](C)[C@@H](C)CCC(C)(C)O)CC[C@@H]23)C[C@H]1O
(II) C=C1[C@H](O)CC(=C/C=C2\CCC[C@]3(C)[C@@H]([C@H](C)[C@@H](C)CCC(C)(C)O)CC[C@@H]23)C[C@H]1O
Challenge: Could you determine which record has the numerically smaller Ki? Candidates: I and II // output: label of the selected item
Response given: II

----------
Biological target: Vitamin D3 receptor (Rattus norvegicus)
Sequence (whole entry): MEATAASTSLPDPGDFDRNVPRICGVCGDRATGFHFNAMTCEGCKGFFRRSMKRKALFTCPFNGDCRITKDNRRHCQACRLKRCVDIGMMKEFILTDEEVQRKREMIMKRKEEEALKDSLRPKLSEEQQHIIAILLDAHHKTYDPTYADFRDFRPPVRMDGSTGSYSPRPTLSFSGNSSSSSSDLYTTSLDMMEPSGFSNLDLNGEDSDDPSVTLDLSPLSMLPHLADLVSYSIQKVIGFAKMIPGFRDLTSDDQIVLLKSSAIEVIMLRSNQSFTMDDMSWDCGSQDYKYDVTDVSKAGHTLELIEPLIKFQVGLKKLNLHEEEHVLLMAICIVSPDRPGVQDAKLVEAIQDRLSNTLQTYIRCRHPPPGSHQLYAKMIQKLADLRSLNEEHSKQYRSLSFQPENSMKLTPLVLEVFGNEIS
Assay: Activation of VDR-mediated 24-hydroxylase transcription in rat osteosarcoma cells after 16 hrs by luciferase reporter gene assay
measurementName: ED50 (nM)

Examples from the recorded data:
[[record]]
compound = "C=C1[C@H](O)CC(=C/C=C2\\CCC[C@]3(C)[C@@H]([C@@H](C)[C@@H](C)CCC(C)(C)O)CC[C@@H]23)C[C@H]1O"
tgt = "Vitamin D3 receptor (Rattus norvegicus)"
measurementname = "ED50"
measured = 4

[[record]]
compound = "C=C1[C@H](O)CC(=C/C=C2\\CCC[C@]3(C)[C@@H]([C@@H](C)CCCC(C)(C)O)CC[C@@H]23)C[C@H]1O [DP001]"
tgt = "Vitamin D3 receptor (Rattus norvegicus)"
measurementname = "ED50"
measured = 0.007

[[record]]
compound = "C=C1[C@H](O)CC(=C/C=C2\\CCC[C@]3(C)[C@@H]([C@H](C)[C@H](C)CCC(C)(C)O)CC[C@@H]23)C[C@H]1O"
tgt = "Vitamin D3 receptor (Rattus norvegicus)"
measurementname = "ED50"
measured = 5

[[record]]
compound = "C=C1[C@H](O)CC(=C/C=C2\\CCC[C@]3(C)[C@@H]([C@@H](C)[C@H](C)CCC(C)(C)O)CC[C@@H]23)C[C@H]1O"
tgt = "Vitamin D3 receptor (Rattus norvegicus)"
measurementname = "ED50"
measured = 0.007

[[record]]
compound = "C=C1[C@H](O)CC(=C/C=C2\\CCC[C@]3(C)[C@@H]([C@H](C)[C@@H](C)CCC(C)(C)O)CC[C@@H]23)C[C@H]1O"
tgt = "Vitamin D3 receptor (Rattus norvegicus)"
measurementname = "ED50"
measured = 0.2


(A) C=C1[C@H](O)CC(=C/C=C2\CCC[C@]3(C)[C@@H]([C@H](C)C(C)(C)CCC(C)(C)O)CC[C@@H]23)C[C@H]1O
(B) C=C1[C@H](O)CC(=C/C=C2\CCC[C@]3(C)[C@@H]([C@@H](C)C(C)(C)CCC(C)(C)O)CC[C@@H]23)C[C@H]1O
Challenge: When their ED50 values are compared, which is larger, A or B ? // output: label of the selected item
Response given: B
